# credit: the supplement of paper PMC11451515

Test system: NOMO1
Experiment: AUC of viability dose-response curve (% viability x log10 dose units); higher = less sensitive
Conditions: RPMI 5 mM glucose + 10% FBS; 48 h
READOUT LABEL: AUC of viability dose-response curve
Answer with a bare number; do not write a unit.

STRUCTURE AS SMILES	TESTED ON	AUC of viability dose-response curve
Cn1cc(C[C@@H](N)C(=O)O)c2ccccc21	NOMO1	448

Now let's try a different one.
So what does the record say about AUC of viability dose-response curve for NC(=O)OCC(COC(N)=O)c1ccccc1 ?
465

====

System: NOMO1
Experiment: cell viability relative to DMSO control; higher = less cytotoxic
Conditions: HPLM + 10% dialyzed FBS; 48 h; 1.71 µM
Each record is given label 1 if its reported cell viability is strictly below 90%. Records at or above 90% are given label 0.

MOLECULE	ASSIGNED CLASS
CNC(=O)Nc1ccc(-c2nc(N3CC4CCC(C3)O4)c3cnn(C4CCC5(CC4)OCCO5)c3n2)cc1	label 1

Item Cc1onc(-c2ccccc2)c1C(=O)N[C@@H]1C(=O)N2[C@@H]1SC(C)(C)[C@@H]2C(=O)[O-].[Na+] : cell viability beneath 90%, strictly?
label 1

Is the reported cell viability for C[C@@H](O)[C@@H]1NC(=O)[C@H](CCCCN)NC(=O)[C@@H](Cc2c[nH]c3ccccc23)NC(=O)[C@H](Cc2ccccc2)NC(=O)[C@@H](NC(=O)[C@H](N)Cc2ccccc2)CSSC[C@@H](C(=O)N[C@H](CO)[C@@H](C)O)NC1=O strictly below 90%?
label 1
